Test system: Cryptococcus neoformans
Test: Antifungal activity against Cryptococcus neoformans ATCC 90113 after 24 to 72 hrs by M27-A2 CLSI method
Assay type: functional
Hi there, I'd appreciate the recorded MFC for every entry that follows.
One number for each entry, in µg/mL.

Sample answers from the record:
CCCCCCCCCCCCCCCCCC1=NCCCC1 3.8
CCCCCCCCCCCCCCCCC1=NCCCC1 3.8
CCCCCCCCCCCCCCC1=NCCCC1 10

Lab note: each compound below needs its MFC filled in.
1. CCCCCCCCCCCCCCCC1=NCCCC1
2. C[C@@H]1[C@H](O)[C@@H](C)/C=C/C=C/C=C/C=C/C=C/C=C/C=C/[C@H](O[C@@H]2O[C@H](C)[C@@H](O)[C@H](N)[C@@H]2O)C[C@@H]2O[C@](O)(C[C@@H](O)C[C@@H](O)[C@H](O)CC[C@@H](O)C[C@@H](O)CC(=O)O[C@H]1C)C[C@H](O)[C@H]2C(=O)O
3. CCCCCCCCCCCCCCCCCCC1=NCCCC1

12.5
0.47
15
